Assay: Human HepG2 cell viability assay in 384 well format
Assay type: toxicity, cell-based
Parameters: dose 125 nL, time 70.5 hour; concentration not given beside the values
Settings: HepG2 cells, read-out: Inhibition
QUANTITY NAME: cytotoxicity at 70.5 h (%)

COMPOUND: O=C([C@@H]1C[C@@H]2CCN(C3CCOCC3)C[C@@H]2O1)N1CCCC1
UOM: %
OBSERVED RESULT: -5.63

COMPOUND: COc1ccc2c(=O)n(CC3CCCCN3C)ccc2c1OC (configuration not stated)
UOM: %
OBSERVED RESULT: -4.5

COMPOUND: CCN(CC)S(=O)(=O)CC(=O)N1CCc2ccc(F)cc21
UOM: %
OBSERVED RESULT: -2.84

COMPOUND: CO[C@@H]1CC[C@H]2[C@H]1OCCN2C(=O)c1ccc(C)o1
UOM: %
OBSERVED RESULT: 46.9

COMPOUND: COCCCNC(=O)CN1CCC(c2ccccc2)C1 (configuration not stated)
UOM: %
OBSERVED RESULT: -7.32

COMPOUND: NC(=O)c1sc2ccccc2c1C1CCN(S(=O)(=O)N2CCOCC2)C1 (configuration not stated)
UOM: %
OBSERVED RESULT: 1.58

COMPOUND: CCCN(C)c1ccc(C(=O)NCc2ccnc(C)n2)cc1
UOM: %
OBSERVED RESULT: -10

COMPOUND: CC(C)CN1CCNC(=O)C12CCN(C(=O)c1ccccn1)CC2
UOM: %
OBSERVED RESULT: 9.35

COMPOUND: Cn1cc(C(=O)N2CCCC(c3ccncc3)C2)cn1 (configuration not stated)
UOM: %
OBSERVED RESULT: -7.32

COMPOUND: COc1ccccc1NC(=O)NCC(O)(c1ccccc1)C1CC1 (configuration not stated)
UOM: %
OBSERVED RESULT: 20.2

COMPOUND: COc1ccc2c(c1)C(=O)NC1(CC2)CCN(Cc2ccncc2)C1 (configuration not stated)
UOM: %
OBSERVED RESULT: -0.942

COMPOUND: CCCN1C[C@H](NC(=O)c2cc(C)no2)[C@@H](c2ccc(OC)cc2)C1
UOM: %
OBSERVED RESULT: 0.817
